Values compiled from PubChem BioAssay AID1986.

assay: inhibitors of HIV fusion peptide binding, primary screen, biochemical, uHTS, fluorescence dequenching (AID 1986); settings: cell-free peptide binding, 30 min, at 20 µM, hits give high values
The campaign covered roughly 290,000 compounds. About 890 (0.31%) were called active. Shown is part of a subset that was picked to be rich in actives.
assay-endpoint: inhibition (%)
Report the figure in % without appending any unit label.

1. Cc1csc(NC(=O)/C=C/c2ccc(C)o2)n1 = 8.7
2. N#C/C(=C/c1ccc(N2CCCCC2)o1)C(=O)NCCc1c[nH]c2ccccc12 = 11.8
3. CCOC(=O)c1cnc2c(N=Nc3ccccc3)c(N)nn2c1N = -0.1

Shifting focus to the compound that follows.
Reported inhibition of O=C(Nc1ccccc1C(=O)O)c1cccc(C(=O)Nc2ccccc2C(=O)O)c1 : 34.2
